Entry source: PubChem BioAssay (NCI)

- method: NCI Yeast Anticancer Drug Screen. Data for the bub3 strain (AID 167)
- measurement setup: S. cerevisiae bub3 mutant strain, at 5.0 µM (retest, dose inferred, filed as 0.5)
Compounds without any hit were thinned out: in the full panel of roughly 79,000, 15% have a hit. The source made the active and inactive calls. No stated cut-off is given here; in the data, active means growth inhibition above about 70%; inactive means the rest.
Returns: one label drawn from yes (1) = active, no (0) = inactive

Use these answered entries as a reference point.
>>> label_value("CCCCCCCCCCCCCCN1CCSCC1")
"no (0)"
>>> label_value("CSC(=S)NN=C1CCCC1")
"yes (1)"
>>> label_value("CCOC(=O)C(Br)c1nc2ccccc2[nH]c1=O (configuration not stated)")
"no (0)"
>>> label_value("O=C(Nn1c(-c2ccccc2)nc2ccccc2c1=O)c1ccccc1O")
"no (0)"
>>> label_value("CC(C)c1ccc(O)c(Cc2cc(C(C)C)ccc2O)c1")
"no (0)"

Could you check what this test reported for CC/C(=N\OC(=O)Nc1ccccc1)c1ccc(OC(=O)Nc2ccccc2)cc1 ?
no (0)

Could you check what this test reported for COC(=O)C12CCC(C)(C)CC1C1=CCC3C4(C)CC(O)C(O)C(C)(C(=O)OC)C4CCC3(C)C1(CO)CC2 (configuration not stated) ?
no (0)

Could you check what this test reported for CC(=O)CCC(Br)(CCC(Br)(CCC(C)=O)[N+](=O)[O-])[N+](=O)[O-] (configuration not stated) ?
no (0)

Could you check what this test reported for Cc1ccc(S(=O)(=O)S/C(=N\c2ccccn2)Nc2ccccn2)cc1 ?
yes (1)

Could you check what this test reported for O=CC(=O)CC(O)CO (configuration not stated) ?
no (0)

Could you check what this test reported for O=C1c2ccccc2/C=C\C(c2ccccc2)=N/N1c1ccccc1Cl ?
no (0)

Could you check what this test reported for Cc1cccc(/C=N/Nc2cc(C)nc3ccccc23)n1 ?
no (0)
